Listed here: items and their measured PDI.
assay_name: Size, polydispersity index and surface charge of mRNA-LNP (Malvern Zetasizer Nano ZS90)
Format: physicochemical
condition_set: mRNA-LNP made with the ionizable lipid at its optimal formulation (Table 2)
Quick one: just the number, no unit, thanks!

Record excerpt, results attached:
compound	PDI
CCCCCCCCCCCOC(=O)CCCCCN(CCCCCCCC(=O)OC(CCCCCCCC)CCCCCCCC)CC(O)CCCCNC(=O)c1nccn1C (stereo not drawn)	0.073
CCCCCCCCCCCOC(=O)CCCCCN(CCCCCCCC(=O)OC(CCCCCCCC)CCCCCCCC)CC(O)CCCCNC(=O)c1cnc(O)n1C (stereo not drawn)	0.154
CCCCCCCCCCCOC(=O)CCCCCN(CCCCCCCC(=O)OC(CCCCCCCC)CCCCCCCC)CC(O)CCCCNC(=O)c1[nH]ccc1O (stereo not drawn)	0.155
CCCCCCCCCCCOC(=O)CCCCCN(CCCCCCCC(=O)OC(CCCCCCCC)CCCCCCCC)CC(O)CCCCNC(=O)c1c(O)ccn1C (stereo not drawn)	0.114

Now consider the entry below.
Challenge: So what's the measured PDI for this one? CCCCCCCCCCCOC(=O)CCCCCN(CCCCCCCC(=O)OC(CCCCCCCC)CCCCCCCC)CC(O)CCCCNC(=O)c1ncc[nH]1 (stereo not drawn)
Response given: 0.145

* * *

System: female C57BL/6 mice
assay_name: Protein expression efficiency of fLuc mRNA-LNPs after intramuscular injection (IVIS whole-body luminescence)
Type: in vivo
condition_set: fLuc mRNA-LNP, intramuscular injection, luminescence at injection site, 6 hours after administration, mice
endpoint_name: Total flux 6 hours
Quick one: just the number, no unit, thanks!

Record excerpt, results attached:
compound	endpoint_name	measured
CCCCCCCCCCCOC(=O)CCCCCN(CCO)CCCCCCCC(=O)OC(CCCCCCCC)CCCCCCCC [SM-102, reference compound]	Total flux 6 hours	1.82E+08
CCCCCCCCCCCOC(=O)CCCCCN(CCCCCCCC(=O)OC(CCCCCCCC)CCCCCCCC)CC(O)CCCCNC(=O)c1c[nH]c(O)n1 (stereo not drawn) [Compound 35]	Total flux 6 hours	5.04E+07

Now consider the entry below.
Challenge: So what's the measured Total flux 6 hours for this one? CCCCCCCCCCCOC(=O)CCCCCN(CCCCCCCC(=O)OC(CCCCCCCC)CCCCCCCC)CC(O)CCCCNC(=O)c1cc[nH]c1 (stereo not drawn) [Compound 17]
Response given: 1.02E+08

* * *

assay_name: Stability of mRNA-LNPs according to storage temperature and duration
Type: physicochemical
condition_set: fLuc mRNA-LNP stored at 25° C., day 7
endpoint_name: Normalized EE % D-7 (%)
Report as a plain number; the unit % is understood.

Record excerpt, results attached:
compound	Normalized EE % D-7 [%]
CCCCCCCCCCCOC(=O)CCCCCN(CCCCCCCC(=O)OC(CCCCCCCC)CCCCCCCC)CC(O)CCCCNC(=O)c1cn(C)cn1 (stereo not drawn)	88.0
CCCCCCCCCCCOC(=O)CCCCCN(CCCCCCCC(=O)OC(CCCCCCCC)CCCCCCCC)CC(O)CCCCNC(=O)c1c(O)ccn1C (stereo not drawn)	89.6
CCCCCCCCCCCOC(=O)CCCCCN(CCCCCCCC(=O)OC(CCCCCCCC)CCCCCCCC)CC(O)CCCCNC(=O)c1ncc[nH]1 (stereo not drawn)	82.1
CCCCCCCCCCCOC(=O)CCCCCN(CCCCCCCC(=O)OC(CCCCCCCC)CCCCCCCC)CC(O)CCCCNC(=O)c1nccn1C (stereo not drawn)	89.0
CCCCCCCCCCCOC(=O)CCCCCN(CCCCCCCC(=O)OC(CCCCCCCC)CCCCCCCC)CC(O)CCCCNC(=O)c1ccc[nH]1 (stereo not drawn)	89.1

Now consider the entry below.
Challenge: So what's the measured Normalized EE % D-7 for this one? CCCCCCCCCCCOC(=O)CCCCCN(CCCCCCCC(=O)OC(CCCCCCCC)CCCCCCCC)CC(O)CCCCNC(=O)c1cc[nH]c1 (stereo not drawn)
Response given: 90.2
